Data provenance: patent US7371734B2

# Tested on: Human dendritic cells
# procedure summary: Induction of IL-1beta production by DC (ELISA)
# Format: cell-based
# details: DC isolated from individual A; 100 μg, 48 hours
So I've got a bunch of substances here, and I need their IL-1beta production by DC (fold increase compared to untreated DC) values.
Reply with just the number (in fold).

Summary for this substance, 5′GGCCGG3′ [N4A] (DNA, all phosphodiester, methylation of C not given here) : IL-1beta production by DC (fold increase compared to untreated DC) is 0.9

In plain terms, 5′GGGGGG3′ [N5A] (unmodified DNA) has a documented IL-1beta production by DC (fold increase compared to untreated DC) of 1.1

Sure, the documented IL-1beta production by DC (fold increase compared to untreated DC) for 5′GGCCGG3′ [N4B] (DNA, all phosphorothioate, methylation of C not given here) is 1.0

get_value(item= 5′GGGTGG3′ [N3A] , readout=IL-1beta production by DC (fold increase compared to untreated DC)) returns 1.1

Field IL-1beta production by DC (fold increase compared to untreated DC) (entry 5′GGGAGG3′ [N6A] (unmodified DNA) ) reads 1.0

IL-1beta production by DC (fold increase compared to untreated DC) in this record for 5′GTGTGT3′ [N1A] : 1.0

Lookup result for 5′GGGGGG3′ [N5B] ; measured IL-1beta production by DC (fold increase compared to untreated DC): 5.0

Record 5′GGGTGG3′ [N3B] , field IL-1beta production by DC (fold increase compared to untreated DC): 1.7

For 5′ GTGTGT3′ [N1B] the substance record lists IL-1beta production by DC (fold increase compared to untreated DC) as 1.0

IL-1beta production by DC (fold increase compared to untreated DC) reported for this substance 5′GGGCGG3′ [N7A] (DNA, all phosphodiester, methylation of C not given here) : 1.1

# IL-1beta production by DC (fold increase compared to untreated DC) (substance: 5′GGGCGG3′ [N7B] (DNA, all phosphorothioate, methylation of C not given here) ) is 1.1

IL-1beta production by DC (fold increase compared to untreated DC) in this record for 5′GGTGGG3′ [N2B] : 1.2

// IL-1beta production by DC (fold increase compared to untreated DC) lookup, substance = 5′GGGAGG3′ [N6B] (DNA, backbone not given here; further chemistry not fully specified) , result: 1.0

The reported IL-1beta production by DC (fold increase compared to untreated DC) of the substance 5′GGTGGG3′ [N2A] was 1.0

* * *

# System: Human dendritic cells
# procedure summary: Induction of IL-1beta production by DC (ELISA)
# Format: cell-based
# details: DC isolated from individual C; 100 μg, 48 hours
Could you please report measured IL-1beta production by DC (fold increase compared to untreated DC) for the items listed next?
Hi! Could you send only the number? It should be in fold, unit omitted.

Form: substance = 5′GGTGGG3′ [N2B] ; IL-1beta production by DC (fold increase compared to untreated DC) = 1.0

So, 5′GGGGGG3′ [N5B] ? Its IL-1beta production by DC (fold increase compared to untreated DC) was 3.7

get_value(item= 5′GGGTGG3′ [N3A] , readout=IL-1beta production by DC (fold increase compared to untreated DC)) returns 1.0

Notebook: 5′GGGCGG3′ [N7A] (DNA, all phosphodiester, methylation of C not given here) , IL-1beta production by DC (fold increase compared to untreated DC) read as 1.0

Form: substance = 5′GGCCGG3′ [N4A] (DNA, all phosphodiester, methylation of C not given here) ; IL-1beta production by DC (fold increase compared to untreated DC) = 1.0

Lab book: IL-1beta production by DC (fold increase compared to untreated DC) of 5′GGGAGG3′ [N6B] (DNA, backbone not given here; further chemistry not fully specified) noted as 1.0

Lookup result for 5′GGGGGG3′ [N5A] (unmodified DNA) ; measured IL-1beta production by DC (fold increase compared to untreated DC): 1.0

Looking up 5′GGGCGG3′ [N7B] (DNA, all phosphorothioate, methylation of C not given here) , I see its IL-1beta production by DC (fold increase compared to untreated DC) listed as 0.9

Looking up 5′ GTGTGT3′ [N1B] , I see its IL-1beta production by DC (fold increase compared to untreated DC) listed as 1.0

The substance identified as 5′GGGAGG3′ [N6A] (unmodified DNA) registered its IL-1beta production by DC (fold increase compared to untreated DC) at 0.9

Sure, the documented IL-1beta production by DC (fold increase compared to untreated DC) for 5′GGTGGG3′ [N2A] is 1.0

* * *

So I've got a bunch of substances here, and I need their End-point titers IgG1, mean ± SD values.
# System: female BALB/C mice
# procedure summary: Vaccination with hepatitis surface antigen (intramuscular), anti-HbsAg end-point dilution ELISA
# Type: in vivo
# details: HbsAg 1 μg + Alum 10 μg + polynucleotide 10 μg i.m. day 0 and 21, plasma day 31
// print number alone

Please fill in: End-point titers IgG1, mean ± SD reported for 5′GGGAGG3′ [N6B] (DNA, backbone not given here; further chemistry not fully specified) = 2880

5′GGGAGG3′ [N6A] (unmodified DNA) yielded End-point titers IgG1, mean ± SD of 2010

Sure, the documented End-point titers IgG1, mean ± SD for 5′GGGTGG3′ [N3B] is 3460

// End-point titers IgG1, mean ± SD lookup, substance = 5′GGGTGG3′ [N3A] , result: 9300

* * *

Answer each item with its documented Percentage of DC showing a FCS > 500 units and a SSC > 400 units.
# Tested on: Human dendritic cells
# procedure summary: Increase in cell size and granularity of DC (flow cytometry)
# Type: cell-based
# details: DC isolated from individual B; 100 μg polynucleotide, 48 hours
Reply with just the number (in %).

// 5′GGTGGG3′ [N2A] : Percentage of DC showing a FCS > 500 units and a SSC > 400 units value = 14

Value of Percentage of DC showing a FCS > 500 units and a SSC > 400 units reported for the substance 5′ GTGTGT3′ [N1B] is 17

// Percentage of DC showing a FCS > 500 units and a SSC > 400 units value for 5′GGGGGG3′ [N5B] : 16

// Percentage of DC showing a FCS > 500 units and a SSC > 400 units lookup, substance = 5′GGGAGG3′ [N6B] (DNA, backbone not given here; further chemistry not fully specified) , result: 17

The recorded Percentage of DC showing a FCS > 500 units and a SSC > 400 units for entry 5′GGTGGG3′ [N2B] equals 38

# Percentage of DC showing a FCS > 500 units and a SSC > 400 units of 5′GGGGGG3′ [N5A] (unmodified DNA) = 19

What the record says about 5′GTGTGT3′ [N1A] : Percentage of DC showing a FCS > 500 units and a SSC > 400 units is 9

// Percentage of DC showing a FCS > 500 units and a SSC > 400 units lookup, substance = 5′GGGTGG3′ [N3B] , result: 25

Lab note: measured Percentage of DC showing a FCS > 500 units and a SSC > 400 units of 5′GGGTGG3′ [N3A] was 15

5′GGGAGG3′ [N6A] (unmodified DNA) yielded Percentage of DC showing a FCS > 500 units and a SSC > 400 units of 22

* * *

# Test system: Human dendritic cells
# procedure summary: Induction of IL-1beta production by DC (ELISA)
# Type: cell-based
# details: DC isolated from individual B; 100 μg, 48 hours
Exercise: for every item that follows, state its recorded IL-1beta production by DC (fold increase compared to untreated DC).
Give the value in fold but do not write fold after it.

Field IL-1beta production by DC (fold increase compared to untreated DC) (entry 5′GTGTGT3′ [N1A] ) reads 1.2

For this substance ( 5′GGGAGG3′ [N6B] (DNA, backbone not given here; further chemistry not fully specified) ), measured IL-1beta production by DC (fold increase compared to untreated DC) is 1.1

// 5′GGGTGG3′ [N3B] : IL-1beta production by DC (fold increase compared to untreated DC) value = 4.4

According to the records, this substance 5′GGTGGG3′ [N2B] displays IL-1beta production by DC (fold increase compared to untreated DC) of 1.4

Note to self: IL-1beta production by DC (fold increase compared to untreated DC) recorded for 5′GGGTGG3′ [N3A] was 1.1

Entry under test: 5′GGTGGG3′ [N2A] . Its IL-1beta production by DC (fold increase compared to untreated DC) was 1.0

IL-1beta production by DC (fold increase compared to untreated DC) reported for this substance 5′GGGAGG3′ [N6A] (unmodified DNA) : 1.1

IL-1beta production by DC (fold increase compared to untreated DC) recorded for this substance, 5′ GTGTGT3′ [N1B] , is 1.0

Reported IL-1beta production by DC (fold increase compared to untreated DC) of 5′GGGGGG3′ [N5B] : 7.5

Lab note: 5′GGGGGG3′ [N5A] (unmodified DNA) gave IL-1beta production by DC (fold increase compared to untreated DC) of 1.1
